Item-by-item account of log10 kon
Molecular target: full-length VAR2CSA recombinant protein (3D7-DBL1X-6ε) (Plasmodium falciparum 3D7, UniProt Q8I639, strain)
Assay: SPR
# values: log10(kon), units M⁻¹ s⁻¹

Answered cases to consult:
In plain terms, VHH879 (VHH) VHH: QVQLQESGGGLVQAGGSLRLSCAASGRTFSDYAMGWFRQAPGKDREFVAAISWSGDRTYYADSVKGRFTISRDNAKNTVYLQMNSLKPEDTAVYHCAANDLMVPELLMPRVESYDYWGQGTQVTVSS has a documented log10 kon of 4.90

In plain terms, VHH895 (VHH) VHH: QVQLQESGGGLVQAGGSLRVSCAASGRALSDYAMGWFRQTPGKEREFVAAISWNGGNTYYADSVKGRFTISRDNAENTVYLQMNSLKPEDTAVYYCAANDLAVPGLLMPRVETYDYWGQGTQVTVSS has a documented log10 kon of 8.04

In plain terms, VHH864 (VHH) VHH: QVQLQESGGGLVQTGGSLRLSCAASGRTFMDYVMGWFRQAPGKEREFVASISWTDSTRYTDSVKGRFTASRDDAKATVYLQMNNLQFEDTAVYYCARGAGRGHSVSAGDYVYWGQGTQVTVSS has a documented log10 kon of 4.53

In plain terms, VHH880 (VHH) VHH: QVQLQESGGGLVQAGGSLRLSCAASGRTFSDYAMGWFRQAPGKDREFVAAISWSGDRTYYADSVKGRFTISRDNAENTVYLQMNSLKPEDTAVYHCAANDLMVPELLMPRVESYDYWGQGTQVTVSS has a documented log10 kon of 4.18

In plain terms, VHH893 (VHH) VHH: QVQLQESGGGLVQAGGSLRLSCAASGFTFDDYAIGWFRQAPGKEREGVSCISSGDGGTYYADSVKGRFTISSDNAENTVALQMNSLKPEDTAVYYCAAVYGSCWDGLLYRTDSYEYDGWGQGTQVTVSS has a documented log10 kon of 4.78

---
In plain terms, VHH897 (VHH) VHH: QVQLQESGGGLVQAGGSLRISCAASGRTFSDYAMGWFRQAPGKEREFVAAISWNGDNTYYADSVKGRFTISRDNAKNTVYLQMNSLKPEDTAVYYCAANDLAVPGLLMPRVETYDYWGQGTQVTVSS has a documented log10 kon of 4.49

In plain terms, VHH861 (VHH) VHH: QVQLQESGGGLVQAGGSLRLSCAFSGSIFKMGWYRQAPGKERELVATITHIGVTDYAEFVKGRFTISRDNAKNTVYLLMNSLKPEDTAVYYCNVASRWPDYWGQGTQVTVSS has a documented log10 kon of 4.46

In plain terms, VHH884 (VHH) VHH: QVQLQESGGGLVQAGGSLRLSCAASGRTFSNYAMGWFRQAPGKEREFVAAISWNGGSTYYADSAKGRFTISRDNAENTVYLQMNSLKPEDTAVYRCAANDLMVPELLMPRVETYDYWGQGTQVTVSS has a documented log10 kon of 3.99
